Test system: 299254-011-R-J1-PDC complex spheroid viability;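 further: spheroids exposed to drugs for one week before measurement; percent viability relative to DMSO vehicle control taken as 100%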
ASSAY PROCEDURE: Anticancer human tumor 299254-011-R-J1-PDC patient-derived melanoma cell line growth inhibition [POLQ]
COND: second compound 0.0316 µM; first compound 0.316 µM; active compounds read low
List of viability, T/C values.
Field: numeric (%). Do not append units.

Solved entries (count: 2):
• CC1COCCN1c1cc(C2(S(C)(=N)=O)CC2)nc(-c2ccnc3[nH]ccc23)n1 (stereo not drawn) + Nc1ccc(C#CCN(C(=O)Cc2ncc(C(F)(F)F)cc2C(F)(F)F)c2ccc(F)cc2)nn1 = 110
• C=CCn1c(=O)c2cnc(Nc3ccc(N4CCN(C)CC4)cc3)nc2n1-c1cccc(C(C)(C)O)n1 + Cc1cccc(N(C)C(=O)C2C(O)CCN2c2nc(C)cc(C(F)(F)F)c2C#N)c1 = 103

# ---- query compound ----
Please fill in: viability, T/C reported for O=C(Nc1ccc(O)c(NS(=O)(=O)c2ccc(F)cc2)c1)c1ccc(-c2ccccc2)cc1 + COC1C(OC(N)=O)C(O)C(Oc2ccc3c(O)c(NC(=O)c4ccc(O)c(CC=C(C)C)c4)c(=O)oc3c2C)OC1(C)C = 94.2
